Origin of measurements: PubChem BioAssay AID1851

- systemName: Cytochrome P450 1A2 (Homo sapiens)
- runDescription: Cytochrome panel assay with activity outcomes
- experimentalParameters: recombinant CYP, pro-luciferin dealkylation, luminescence, p450-cyp1a2; series mostly up to 57.1 µM
About 5,700 (36%) of roughly 16,000 compounds were called active. Roughly 24% stayed inconclusive and do not appear here. The call rests on the fitted dose curve; in most records, active means well fitted curve in the direction sought with a large enough effect; inconclusive means small, poorly fitted or top-dose-only effect, or effect the other way; inactive means no such curve, though single readings can be large or run the other way. The list shows a part of the results.
Pick one: active, inactive

As a guide, the following entries are already answered.
Cc1ccc(C(=O)NCCNC(=O)CN2CCOCC2)cc1 :: inactive
Cc1ccc(C)c(N(CC(=O)NC2CCCC2)C(=O)c2cc3cc4cccc(C)c4nc3s2)c1 :: inactive
Nc1cc(Cl)ccc1Oc1ccccc1 :: active
O=C(O)CNC(=O)[C@@H](CS)Cc1ccccc1 :: inactive
COc1cccc(-c2cncnc2-n2ccnc2)c1 :: active

Task item: Test call for this compound, please: `O=C(O)CCCC[C@H]1CCSS1`
Reply: inactive

Task item: Test call for this compound, please: `Cc1ccc(SCCNC(=O)c2ccccc2)cc1`
Reply: active

Task item: Test call for this compound, please: `COc1cc(OC)c(C(=O)CCCCN2CCC3(CC2)NC(=O)NC3=O)cc1NS(=O)(=O)c1ccc(C(F)(F)F)cc1`
Reply: inactive

Task item: Test call for this compound, please: `COCC(=O)N1CCC2(CC1)CCN(C(=O)Nc1cccc(C#N)c1)CC2`
Reply: inactive

Task item: Test call for this compound, please: `CCNc1nc(NCC)nc(ON=C(C)C)n1`
Reply: active

Task item: Test call for this compound, please: OC(COCC1COc2ccccc2O1)CN1CCc2ccccc2C1 (configuration not stated)
Reply: active

Task item: Test call for this compound, please: COc1cccc(-c2[nH]nc3c2C(c2ccsc2)C(C#N)=C(N)O3)c1 (configuration not stated)
Reply: active
